System: BDF1 mice, s.c. Lewis lung carcinoma, T/C %
Experimental Details: NCI In Vivo Anticancer Drug Screen. Data for tumor model Lewis Lung Carcinoma (subcutaneous) in B6D2F1 (BDF1) mice
Condition Summary: endpoint: mean tumor weight; dose: 60.0 mg/kg/injection; schedule: Q01DX011 (ip); vehicle: saline; higher = larger tumour
Results filed as inconclusive are left out.
Listing of entries alongside the reported T/C.
Test Readout: T/C

INSERT INTO measurements (compound, result_value) VALUES
  ('C[N+](C)(C)c1ncnc2nc[nH]c12', '55 % of control'),
  ('CCOC(C)C(/C=N/NC(N)=S)=NNC(N)=S (centres undefined)', '81 % of control'),
  ('CC(/C=N/N=C(N)N)=N\N=C(N)N', '46 % of control'),
  ('CCOC(N)=O', '119 % of control');

###

Tested on: BDF1 mice, s.c. Lewis lung carcinoma, T/C %
Experimental Details: NCI In Vivo Anticancer Drug Screen. Data for tumor model Lewis Lung Carcinoma (subcutaneous) in B6D2F1 (BDF1) mice
Condition Summary: endpoint: median survival time; dose: 8.0 mg/kg/injection; schedule: Q01DX009 (ip); vehicle: saline with Tween-80; higher = longer survival
Results filed as inconclusive are left out.
Below, each entry is listed with its recorded T/C.
Test Readout: T/C

INSERT INTO results (molecule, result_value) VALUES
  ('O=NN(CCCl)C(=O)NC1CCCCC1', '120 % of control'),
  ('CC1OC(=O)C(C(C)C)NC(=O)C(C(C)C)OC(=O)C(C(C)C)NC(=O)C(C)OC(=O)C(C(C)C)NC(=O)C(C(C)C)OC(=O)C(C(C)C)NC(=O)C(C)OC(=O)C(C(C)C)NC(=O)C(C(C)C)OC(=O)C(C(C)C)NC1=O (stereo not given)', '114 % of control'),
  ('CCOC(=O)C(CC(C)C)NC(=O)C(Cc1ccc(N(CCCl)CCCl)cc1)NC(C)=O (stereo not given)', '108 % of control'),
  ('CC1=C(/C=C/C(C)=C/C=C/C(C)=C/C(=O)O)C(C)(C)CCC1', '102 % of control'),
  ('O=NN(CCCl)C(=O)Nc1ccc(Cl)c(Cl)c1', '116 % of control');

###

Tested on: BDF1 mice, s.c. Lewis lung carcinoma, T/C %
Experimental Details: NCI In Vivo Anticancer Drug Screen. Data for tumor model Lewis Lung Carcinoma (subcutaneous) in B6D2F1 (BDF1) mice
Condition Summary: endpoint: mean tumor weight; dose: 50.0 mg/kg/injection; schedule: Q01DX011 (ip); vehicle: other; higher = larger tumour
Results filed as inconclusive are left out.
Reported T/C is given for each of the following compounds.
Test Readout: T/C

INSERT INTO results (compound, result_value) VALUES
  ('Cc1cc(O)c(C(C)C)cc1S(=O)(=O)O (tested in a mixture with another compound)', '105 % of control'),
  ('c1ccc(CSc2ncnc3nc[nH]c23)nc1', '109 % of control'),
  ('O=C1CCC(=O)N1Br', '99 % of control'),
  ('S=c1c2[nH]cnc2ncn1CCSC1=NC=NC2=NC=NC21 (stereo not drawn)', '96 % of control'),
  ('Clc1ncnc2c1ncn2C1CCCO1 (stereo not drawn)', '108 % of control'),
  ('CC1(C)N=C(N)N=C(N)N1c1cccc(Br)c1', '16 % of control'),
  ('O=C1N(Cl)C(=O)C(c2ccc(Cl)cc2)(c2ccc(Cl)cc2)N1Cl', '23 % of control'),
  ('Nc1nc(SCc2ccccc2Cl)c2ncn(C3OC(CO)C(O)C3O)c2n1 (stereo not drawn)', '28 % of control'),
  ('Cc1ccc(N2CCN(CCCN3CCN(c4ccc(Cl)cc4)CC3)CC2)cc1', '70 % of control'),
  ('CC(C)Sc1nc(N)nc2nc[nH]c12', '67 % of control'),
  ('CCN(CC)CCNc1ccc([N+](=O)[O-])c2sc3ccccc3c(=O)c12', '84 % of control'),
  ('Nc1ncnc2c1ncn2C1CCCO1 (stereo not drawn)', '75 % of control'),
  ('Clc1cccc(Br)c1', '81 % of control'),
  ('O=c1n(CCCl)c(=O)n(CCCl)c(=O)n1CCCl', '116 % of control'),
  ('S=c1nc[nH]c2c1ncn2C1CCCO1 (stereo not drawn)', '91 % of control'),
  ('CCCCCCCCCCCCO[P+](=O)OCCCCCCCCCCCC', '122 % of control'),
  ('CCCn1cnc2c(SCc3ccccc3Cl)nc(N)nc21', '102 % of control'),
  ('Cc1cc(N)c2cc(NC(=O)CCCCCCCCC(=O)Nc3ccc4nc(C)cc(N)c4c3)ccc2n1', '61 % of control');
